Item-by-item account of CL/F
assay: Observed apparent […] clearance in CD-1 mouse at 2 mg/kg, ip by LC-MS/MS analysis; format: ADME, organism-based; conditions: in vivo
Numeric only. Scale: mL/min/kg

C[C@]12CC[C@@H]3c4ccc(O)cc4C[C@@H](CCCCCCCCC[S+]([O-])CCCC(F)(F)C(F)(F)F)[C@H]3[C@@H]1CC[C@@H]2O (some centres not stated)
45.8

// sample COC(=O)c1ccc2c(c1)CCCC(c1ccc(Cl)cc1Cl)=C2c1ccc(N2CCN(CC3CCN(CC4CCN(C(=O)CNc5ccc6c(c5)C(=O)N(C5CCC(=O)NC5=O)C6)CC4)CC3)CC2)cc1 (configuration not stated) , its CL/F was 25.8

* * *

assay: Cmax in CD-1 mouse at 2 mg/kg, ip by LC-MS/MS analysis; assay type: ADME, organism-based; details: in vivo
experimentalReadout: Cmax
Quote the value and follow it with the unit of measurement.

C[C@]12CC[C@@H]3c4ccc(O)cc4C[C@@H](CCCCCCCCC[S+]([O-])CCCC(F)(F)C(F)(F)F)[C@H]3[C@@H]1CC[C@@H]2O (some centres not stated)
237 ng/mL

In the following, a different compound is considered.
# compound COC(=O)c1ccc2c(c1)CCCC(c1ccc(Cl)cc1Cl)=C2c1ccc(N2CCN(CC3CCN(CC4CCN(C(=O)CNc5ccc6c(c5)C(=O)N(C5CCC(=O)NC5=O)C6)CC4)CC3)CC2)cc1 (configuration not stated) ; its Cmax = 677 ng/mL

* * *

test: Tmax in CD-1 mouse at 2 mg/kg, ip by LC-MS/MS analysis; type: ADME, organism-based; settings: in vivo
In this section we review reported Tmax values for a set of compounds.
Supply the numeric figure in min, leaving out any unit text.

C[C@]12CC[C@@H]3c4ccc(O)cc4C[C@@H](CCCCCCCCC[S+]([O-])CCCC(F)(F)C(F)(F)F)[C@H]3[C@@H]1CC[C@@H]2O (some centres not stated) [FULVESTRANT]
49.8

// field: Tmax; key: COC(=O)c1ccc2c(c1)CCCC(c1ccc(Cl)cc1Cl)=C2c1ccc(N2CCN(CC3CCN(CC4CCN(C(=O)CNc5ccc6c(c5)C(=O)N(C5CCC(=O)NC5=O)C6)CC4)CC3)CC2)cc1 (configuration not stated) ; value = 49.8
